target: human ether-à-go-go-related gene (hERG) potassium channel (human); assay: primary screen, population patch clamp on CHO cells stably expressing hERG; higher = less effect of the substance
Sequence (Q12809 whole entry, looked up): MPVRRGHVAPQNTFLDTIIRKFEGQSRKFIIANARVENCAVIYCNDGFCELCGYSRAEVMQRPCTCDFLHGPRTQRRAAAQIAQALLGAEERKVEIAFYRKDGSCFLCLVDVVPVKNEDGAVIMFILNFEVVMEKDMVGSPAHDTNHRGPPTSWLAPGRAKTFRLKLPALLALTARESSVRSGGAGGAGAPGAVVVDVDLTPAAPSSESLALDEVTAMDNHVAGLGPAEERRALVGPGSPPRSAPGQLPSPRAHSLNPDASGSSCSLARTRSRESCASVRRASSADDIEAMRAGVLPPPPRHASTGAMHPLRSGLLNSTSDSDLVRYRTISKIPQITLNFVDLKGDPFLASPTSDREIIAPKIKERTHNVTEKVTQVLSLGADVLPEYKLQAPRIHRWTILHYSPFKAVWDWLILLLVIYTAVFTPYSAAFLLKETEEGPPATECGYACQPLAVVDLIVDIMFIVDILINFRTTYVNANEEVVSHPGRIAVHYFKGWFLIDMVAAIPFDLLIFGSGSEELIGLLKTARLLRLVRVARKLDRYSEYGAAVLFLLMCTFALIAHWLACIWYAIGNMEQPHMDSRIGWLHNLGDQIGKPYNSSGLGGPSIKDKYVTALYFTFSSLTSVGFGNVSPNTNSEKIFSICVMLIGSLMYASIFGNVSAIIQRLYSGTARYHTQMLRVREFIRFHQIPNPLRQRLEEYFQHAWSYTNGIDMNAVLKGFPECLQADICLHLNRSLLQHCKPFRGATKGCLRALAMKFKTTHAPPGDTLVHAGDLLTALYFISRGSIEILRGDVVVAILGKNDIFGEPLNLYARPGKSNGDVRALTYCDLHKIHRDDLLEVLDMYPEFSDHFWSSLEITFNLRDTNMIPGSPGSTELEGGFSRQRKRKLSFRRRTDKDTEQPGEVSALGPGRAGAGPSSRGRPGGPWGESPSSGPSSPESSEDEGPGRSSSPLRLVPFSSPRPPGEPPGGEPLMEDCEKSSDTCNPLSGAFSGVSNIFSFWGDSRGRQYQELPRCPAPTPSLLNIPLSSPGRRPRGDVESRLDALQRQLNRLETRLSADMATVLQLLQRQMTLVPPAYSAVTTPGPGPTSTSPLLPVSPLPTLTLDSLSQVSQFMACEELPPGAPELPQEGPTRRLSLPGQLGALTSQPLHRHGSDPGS
The campaign covered roughly 310,000 compounds. About 2,200 (0.71%) showed an effect of 50% or more. Effects have a minus sign here. This excerpt belongs to a sample that is enriched for strong results.
MEASUREMENT NAME: hERG current change (%, negative = inhibition) at 1uM
Please give the number followed by its unit.

OCC1(CC2CCCCO2)CCN(C/C=C/c2ccccc2)CC1 (centres unmarked)
-2.99%

Please find the next compound below.
query: Consider the compound shown here: OCC1(CCc2ccccc2)CCCN(CCCc2ccccc2)C1 (centres unmarked) What is its recorded hERG current change (%, negative = inhibition) at 1uM?
result: -57.6%
